tested on: A549; experiment: Growth inhibition of human A549/ATCC cells incubated for 48 hrs by sulforhodamine B assay; assay type: functional; details: A549, 48 h
Note to self: GI50 under 2000 nM means 1 (yes), ties and anything higher get 0 (no).

>>> print(df.to_string())
                                smiles_data  label_value
0  COc1ccccc1CNCCCN1C(=O)c2ccc3c4c(ccc(c24)C1=O)C(=O)N(CCCCNCCCN)C3=O      1 (yes)
1  COc1ccccc1CNCCCN1C(=O)c2ccc3c4c(ccc(c24)C1=O)C(=O)N(CCCNCCCCNCCCN)C3=O      1 (yes)
2  COc1ccccc1CNCCCN1C(=O)c2ccc3c4c(ccc(c24)C1=O)C(=O)N(CCCNCCCCN)C3=O      1 (yes)
3  CNCCCNCCCCNCCCN1C(=O)c2ccc3c4c(ccc(c24)C1=O)C(=O)N(CCCNCc1ccccc1OC)C3=O       0 (no)
4  COc1ccccc1CNCCCN1C(=O)c2ccc3c4c(ccc(c24)C1=O)C(=O)N(CCCNCCNCCCN)C3=O       0 (no)

====

GI50 by entry:
test system: OVCAR-3; assay: Growth inhibition of human OVCAR3 cells incubated for 48 hrs by sulforhodamine B assay; assay type: functional; conditions: OVCAR-3, 48 h
readout kind: GI50

>>> print(df.to_string())
                                smiles_data  reported_measurement
0  COc1ccccc1CNCCCN1C(=O)c2ccc3c4c(ccc(c24)C1=O)C(=O)N(CCCNCCCCN)C3=O                293 nM
1  CNCCCNCCCN1C(=O)c2ccc3c4c(ccc(c24)C1=O)C(=O)N(CCCNCc1ccccc1OC)C3=O               1370 nM
2  COc1ccccc1CNCCCN1C(=O)c2ccc3c4c(ccc(c24)C1=O)C(=O)N(CCCN)C3=O                301 nM
3  COc1ccccc1CNCCCN1C(=O)c2ccc3c4c(ccc(c24)C1=O)C(=O)N(CCCOCCCCOCCCN)C3=O                593 nM

====

system: HCC 2998; assay: Growth inhibition of human HCC2998 cells incubated for 48 hrs by sulforhodamine B assay; assay type: functional; conditions: HCC 2998, 48 h
readout kind: GI50

>>> print(df.to_string())
                                smiles_data  assay_target  readout_kind  reported_measurement
0  COc1ccccc1CNCCCN1C(=O)c2ccc3c4c(ccc(c24)C1=O)C(=O)N(CCCOCCCCOCCCN)C3=O      HCC 2998          GI50                635 nM
1  COc1ccccc1CNCCCN1C(=O)c2ccc3c4c(ccc(c24)C1=O)C(=O)N(CCCN)C3=O      HCC 2998          GI50               1860 nM
2  CNCCCNCCCN1C(=O)c2ccc3c4c(ccc(c24)C1=O)C(=O)N(CCCNCc1ccccc1OC)C3=O      HCC 2998          GI50               1930 nM
3  COc1ccccc1CNCCCN1C(=O)c2ccc3c4c(ccc(c24)C1=O)C(=O)N(CCCCNCCCN)C3=O      HCC 2998          GI50                810 nM
4  COc1ccccc1CNCCCN1C(=O)c2ccc3c4c(ccc(c24)C1=O)C(=O)N(CCCNCCNCCCN)C3=O      HCC 2998          GI50               2250 nM

====

system: SNB-19; assay: Growth inhibition of human SNB19 cells incubated for 48 hrs by sulforhodamine B assay; type: functional; settings: SNB-19, 48 h
readout kind: GI50 (nM)

>>> print(df.to_string())
                                smiles_data  assay_target  readout_kind  reported_measurement
0  COc1ccccc1CNCCCN1C(=O)c2ccc3c4c(ccc(c24)C1=O)C(=O)N(CCCN)C3=O        SNB-19          GI50                  1510
1  COc1ccccc1CNCCCN1C(=O)c2ccc3c4c(ccc(c24)C1=O)C(=O)N(CCCOCCCCOCCCN)C3=O        SNB-19          GI50                  1530
2  COc1ccccc1CNCCCN1C(=O)c2ccc3c4c(ccc(c24)C1=O)C(=O)N(CCCCNCCCN)C3=O        SNB-19          GI50                  1320
3  COc1ccccc1CNCCCN1C(=O)c2ccc3c4c(ccc(c24)C1=O)C(=O)N(CCCNCCCCN)C3=O        SNB-19          GI50                   292
4  COc1ccccc1CNCCCN1C(=O)c2ccc3c4c(ccc(c24)C1=O)C(=O)N(CCCNCCNCCCN)C3=O        SNB-19          GI50                  2180
5  CNCCCNCCCN1C(=O)c2ccc3c4c(ccc(c24)C1=O)C(=O)N(CCCNCc1ccccc1OC)C3=O        SNB-19          GI50                  1680
6  COc1ccccc1CNCCCN1C(=O)c2ccc3c4c(ccc(c24)C1=O)C(=O)N(CCCNCCCCNCCCN)C3=O        SNB-19          GI50                   579
7  COc1ccccc1CNCCCN1C(=O)c2ccc3c4c(ccc(c24)C1=O)C(=O)N(CCCNCCCN)C3=O        SNB-19          GI50                   702
8  CNCCCNCCCCNCCCN1C(=O)c2ccc3c4c(ccc(c24)C1=O)C(=O)N(CCCNCc1ccccc1OC)C3=O        SNB-19          GI50                  3790

====

test system: SK-MEL-2; test: Growth inhibition of human SK-MEL-2 cells incubated for 48 hrs by sulforhodamine B assay; format: functional; conditions: SK-MEL-2, 48 h
GI50 by entry:
readout kind: GI50 (µM)

In [3]: df
Out[3]:
                                smiles_data  assay_target  reported_measurement
0  COc1ccccc1CNCCCN1C(=O)c2ccc3c4c(ccc(c24)C1=O)C(=O)N(CCCNCCCN)C3=O      SK-MEL-2                 0.907
1  CNCCCNCCCN1C(=O)c2ccc3c4c(ccc(c24)C1=O)C(=O)N(CCCNCc1ccccc1OC)C3=O      SK-MEL-2                  1.75
2  COc1ccccc1CNCCCN1C(=O)c2ccc3c4c(ccc(c24)C1=O)C(=O)N(CCCOCCCCOCCCN)C3=O      SK-MEL-2                  1.83
3  COc1ccccc1CNCCCN1C(=O)c2ccc3c4c(ccc(c24)C1=O)C(=O)N(CCCNCCCCN)C3=O      SK-MEL-2                 0.223
4  COc1ccccc1CNCCCN1C(=O)c2ccc3c4c(ccc(c24)C1=O)C(=O)N(CCCNCCCCNCCCN)C3=O      SK-MEL-2                 0.229
5  CNCCCNCCCCNCCCN1C(=O)c2ccc3c4c(ccc(c24)C1=O)C(=O)N(CCCNCc1ccccc1OC)C3=O      SK-MEL-2                  4.46
6  COc1ccccc1CNCCCN1C(=O)c2ccc3c4c(ccc(c24)C1=O)C(=O)N(CCCNCCNCCCN)C3=O      SK-MEL-2                  2.67
7  COc1ccccc1CNCCCN1C(=O)c2ccc3c4c(ccc(c24)C1=O)C(=O)N(CCCN)C3=O      SK-MEL-2                  1.44
8  COc1ccccc1CNCCCN1C(=O)c2ccc3c4c(ccc(c24)C1=O)C(=O)N(CCCCNCCCN)C3=O      SK-MEL-2                  1.09

====

tested on: OVCAR-3; experiment: Growth inhibition of human OVCAR3 cells incubated for 48 hrs by sulforhodamine B assay; assay type: functional; conditions: OVCAR-3, 48 h
readout kind: GI50 (nM)

>>> df
                                smiles_data  reported_measurement
0  COc1ccccc1CNCCCN1C(=O)c2ccc3c4c(ccc(c24)C1=O)C(=O)N(CCCNCCCCNCCCN)C3=O                   262
1  COc1ccccc1CNCCCN1C(=O)c2ccc3c4c(ccc(c24)C1=O)C(=O)N(CCCNCCCN)C3=O                   332
2  COc1ccccc1CNCCCN1C(=O)c2ccc3c4c(ccc(c24)C1=O)C(=O)N(CCCCNCCCN)C3=O                   338
3  COc1ccccc1CNCCCN1C(=O)c2ccc3c4c(ccc(c24)C1=O)C(=O)N(CCCNCCNCCCN)C3=O                  2160
4  CNCCCNCCCCNCCCN1C(=O)c2ccc3c4c(ccc(c24)C1=O)C(=O)N(CCCNCc1ccccc1OC)C3=O                  2930
